// provenance: the NIST ThermoML archive (doi:10.1021/acs.jced.6b00691)

- experiment_summary: xn = mol fraction of the nth substance listed
- details: 373 K; 30000 kPa; Liquid; Taylor dispersion method; x2 = 0
observed_property: binary diffusion coefficient
Write the figure, then the unit, nothing else.

[in] Determine its reported binary diffusion coefficient: CCCCCCCCCCCCCCCC [hexadecane] + O=C=O
[out] 5.88e-09 m2/s

[in] Determine its reported binary diffusion coefficient: CCCCCCC [heptane] + O=C=O
[out] 1.12e-08 m2/s

[in] Determine its reported binary diffusion coefficient: CC(C)CCCC(C)CCCC(C)CCCCC(C)CCCC(C)CCCC(C)C (centres undefined) [2,6,10,15,19,23-hexamethyltetracosane] + O=C=O
[out] 3.21e-09 m2/s

[in] Determine its reported binary diffusion coefficient: Cc1ccccc1 [toluene] + O=C=O
[out] 9.81e-09 m2/s

* * *

- experiment_summary: xn = mol fraction of the nth substance listed
- details: 423 K; 1100 kPa; Liquid; Taylor dispersion method; x2 = 0
observed_property: binary diffusion coefficient (m2/s)
Output spec: scalar in m2/s, unitless text.

Worked cases, binary diffusion coefficient given:
Cc1ccccc1 [toluene] + O=C=O ... 1.6e-08
CCCCCCCCCC [decane] + O=C=O ... 1.51e-08
CCCCCCCCCCCCCCCC [hexadecane] + O=C=O ... 1.04e-08

Next up:
[in] Determine its reported binary diffusion coefficient: CCCCCCCC [octane] + O=C=O
[out] 1.67e-08

* * *

- experiment_summary: xn = mol fraction of the nth substance listed
- details: 323 K; 30000 kPa; Liquid; Taylor dispersion method; x2 = 0
Some molecules, each annotated with its measured binary diffusion coefficient.
Output spec: scalar in m2/s, unitless text.

Worked cases, binary diffusion coefficient given:
CC(C)CCCC(C)CCCC(C)CCCCC(C)CCCC(C)CCCC(C)C (centres undefined) [2,6,10,15,19,23-hexamethyltetracosane] + O=C=O ... 1.35e-09
CCCCCCC [heptane] + O=C=O ... 7.64e-09
CCCCCCCCCCCCCCCC [hexadecane] + O=C=O ... 3.17e-09

Next up:
[in] Determine its reported binary diffusion coefficient: Cc1ccccc1 [toluene] + O=C=O
[out] 6.32e-09

* * *

- experiment_summary: xn = mol fraction of the nth substance listed
- details: 298 K; 1000 kPa; Liquid; Taylor dispersion method; x2 = 0
observed_property: binary diffusion coefficient (m2/s)
Output spec: scalar in m2/s, unitless text.

Worked cases, binary diffusion coefficient given:
CCCCCCCC [octane] + O=C=O ... 6.32e-09
Cc1ccccc1 [toluene] + O=C=O ... 5.53e-09
CCCCCCCCCCCCCCCC [hexadecane] + O=C=O ... 2.49e-09

Next up:
[in] Determine its reported binary diffusion coefficient: CCCCCCC [heptane] + O=C=O
[out] 7.28e-09

* * *

- experiment_summary: xn = mol fraction of the nth substance listed
- details: 373 K; 10000 kPa; Liquid; Taylor dispersion method; x2 = 0
Some molecules, each annotated with its measured binary diffusion coefficient.
Write the figure, then the unit, nothing else.

[in] Determine its reported binary diffusion coefficient: CC(C)CCCC(C)CCCC(C)CCCCC(C)CCCC(C)CCCC(C)C (centres undefined) [2,6,10,15,19,23-hexamethyltetracosane] + O=C=O
[out] 3.72e-09 m2/s

[in] Determine its reported binary diffusion coefficient: CCCCCCC [heptane] + O=C=O
[out] 1.25e-08 m2/s

[in] Determine its reported binary diffusion coefficient: CCCCCCCCCCCCCCCC [hexadecane] + O=C=O
[out] 6.17e-09 m2/s

[in] Determine its reported binary diffusion coefficient: Cc1ccccc1 [toluene] + O=C=O
[out] 1.04e-08 m2/s
